Molecular target: T1, Tumor necrosis factor α (UniProt P01375 77-233)
T1 construct: also called TNFα; TNF
T1 sequence (P01375 77-233 limits assumed): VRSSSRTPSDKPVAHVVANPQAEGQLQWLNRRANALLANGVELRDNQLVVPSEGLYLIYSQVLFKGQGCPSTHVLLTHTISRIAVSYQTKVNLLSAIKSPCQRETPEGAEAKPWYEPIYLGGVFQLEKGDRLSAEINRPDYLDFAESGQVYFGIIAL
Assay: BioVeris ECL competition; negative control for TNFα binding
observed_property: IC50

Ask: Param item = BBIt-VEGF-V1-A13I-S25R-M27A-L29P-S31A-F50K-V52T (designed binder, also called BBIt-AV-V1) DPDDESSKPCCDQCICTKSNPPQCRCRDARPNACHSACKSCACSKHSQITCKCTDITDFCYEPCKPSE ; retrieve measured IC50.
Result: > 250 µM

Numbers sourced from patent US20100093028A1.
